// reported Normal melting temperature per item
conditions: Crystal; DTA

| Compound | Normal melting temperature / °C |
| --- | --- |
| Cn1cc[n+](CC(Br)CN=[N+]=[N-])c1.[Br-] (stereo unspecified) [1-(3-azido-2-bromopropyl)-3-methyl-3H-imidazol-1-ium bromide] | 17 |
| Cn1cc[n+](CC(CBr)N=[N+]=[N-])c1.N#C[N-]C#N (stereo unspecified) | -2 |
| Cn1cc[n+](CC(CBr)N=[N+]=[N-])c1.[Br-] (stereo unspecified) [1-(2-azido-3-bromopropyl)-3-methyl-3H-imidazol-1-ium bromide] | 10 |
| Cn1cc[n+](CC(Br)CN=[N+]=[N-])c1.N#C[N-]C#N (stereo unspecified) | 6 |
| C=Cn1cc[n+](CC(C[n+]2ccn(C)c2)N=[N+]=[N-])c1.N#C[N-]C#N.N#C[N-]C#N (stereo unspecified) | 19 |
| C=Cn1cc[n+](CC(C[n+]2ccn(C)c2)N=[N+]=[N-])c1.[Br-].[Br-] (stereo unspecified) | 23 |

---

Item-by-item account of mass density
conditions: 298 K; 101.33 kPa; Liquid; Pycnometric method
± gives the expanded uncertainty stated by the source.
Outcome measure: mass density

| Molecule | Experimental result |
| --- | --- |
| C=Cn1cc[n+](CC(C[n+]2ccn(C)c2)N=[N+]=[N-])c1.[Br-].[Br-] (stereo unspecified) | 1560 ± 20 kg/m3 |
| C=Cn1cc[n+](CC(C[n+]2ccn(C)c2)N=[N+]=[N-])c1.N#C[N-]C#N.N#C[N-]C#N (stereo unspecified) | 1490 ± 20 kg/m3 |
| Cn1cc[n+](CC(CBr)N=[N+]=[N-])c1.[Br-] (stereo unspecified) [1-(2-azido-3-bromopropyl)-3-methyl-3H-imidazol-1-ium bromide] | 1360 ± 10 kg/m3 |
| Cn1cc[n+](CC(Br)CN=[N+]=[N-])c1.N#C[N-]C#N (stereo unspecified) | 1280 ± 10 kg/m3 |
| Cn1cc[n+](CC(CBr)N=[N+]=[N-])c1.N#C[N-]C#N (stereo unspecified) | 1310 ± 10 kg/m3 |
| Cn1cc[n+](CC(Br)CN=[N+]=[N-])c1.[Br-] (stereo unspecified) [1-(3-azido-2-bromopropyl)-3-methyl-3H-imidazol-1-ium bromide] | 1340 ± 10 kg/m3 |
